remaining at 8 h listing for selected compounds.
Assay: Stability in human serum assessed as parent compound remaining measured after 8 hrs by LC-SWATH-MS analysis
Assay type: ADME, cell-free
Conditions: read-out: Stability
Where a SMILES comes first, the peptide text is derived from it.
Note: unit % is implicit; provide only the numeric part.

compound: N=C(N)NCCCC[C@H](N)C(=O)NCC[C@H](N)C(=O)N[C@@H](CCN)C(=O)N1C2CCCCC2C[C@H]1C(=O)N[C@@H](CCCNC(=N)N)C(=O)O (some centres not stated) (HELM PEPTIDE1{[Dab].[Dab].[O=C([C@@H]1CC2CCCCC2N1[*:1])[*:2]].R}|PEPTIDE2{[N=C(N)NCCCC[C@H](N)C(=O)[*:2]]}$PEPTIDE1,PEPTIDE2,1:R3-1:R2$$$V2.0)
recorded_number: 56

Now take the following compound into account.
Give remaining at 8 h for N=C(N)NCCCC[C@H](NC(=O)[C@@H](N)CS)C(=O)NCCCC[C@H](N)C(=O)N[C@@H](CCN)C(=O)N1C2CCCCC2C[C@H]1C(=O)N[C@@H](CCCNC(=N)N)C(=O)O (some centres not stated) (HELM PEPTIDE1{K.[Dab].[O=C([C@@H]1CC2CCCCC2N1[*:1])[*:2]].R}|PEPTIDE2{C.[N=C(N)NCCCC[C@H](N[*:1])C(=O)[*:2]]}$PEPTIDE1,PEPTIDE2,1:R3-2:R2$$$V2.0)
47
